Ref: the supplement of paper PMC4466140

Target: AgLsb1
Assay: SPOT peptide array binding signal intensity (averaged, normalized) (arbitrary units (background-subtracted, floor 0; scale differs between SH3 domains)); higher = stronger binding of the SH3 domain to the peptide
measurement.name: SPOT peptide array binding signal intensity

| binder | lt.gt.eq | quantitative.readout |
| --- | --- | --- |
| MSPLGAPPPPPHKDH | ≤ | 0 |
| AERNYAPRLPRRETS | = | 289 |
| LKRITSPPLPPRADS | = | 1010 |
| IKTRSVPKIPSIESV | = | 71 |
